These entries and their values trace back to the RNAGym collection of RNA variant scans (doi:10.7554/elife.80360).

B1: Hairpin Ribozyme (parent)
chain: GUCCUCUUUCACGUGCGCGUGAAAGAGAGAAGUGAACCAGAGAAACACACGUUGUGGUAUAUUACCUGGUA

Variants of: B1
Assay: self-cleavage, relative activity (ratio to wild type); higher = more cleavage; co-transcriptional
Listed next: entries and their corresponding self-cleavage.
Value type: self-cleavage

>>> reported("G19C A44G")
0.0921
>>> reported("U20A G29A")
0.101
>>> reported("C48G G68U")
0.163
>>> reported("U2G G29U")
0.137
>>> reported("U60G U62A")
0.203
>>> reported("U52G C65U")
0.302
>>> reported("U7C G15U")
1.05
>>> reported("C12U G68A")
0.259
>>> reported("U14A A23C")
0.789
>>> reported("U8A G17C")
0.63
>>> reported("A31U U33C")
0.0766
>>> reported("U5G A47C")
0.102
>>> reported("U9G U63C")
0.094
>>> reported("G1U G15C")
0.0726
>>> reported("U55C C66G")
0.191
>>> reported("A36G U67A")
0.195
>>> reported("C12U U20A")
0.695
>>> reported("G54U C66A")
0.228
>>> reported("C10U A64U")
0.134
>>> reported("G1C G69C")
0.303
>>> reported("C65A U67G")
0.197
>>> reported("A11C A44U")
0.155
>>> reported("U9G G56A")
0.18
>>> reported("G42C U55A")
0.169
>>> reported("U33G U60C")
0.195
>>> reported("C10U A39G")
0.242
>>> reported("U8G G21A")
0.693
>>> reported("A45U C46A")
0.125
>>> reported("G27A A36G")
0.42
>>> reported("U8G G15A")
0.897
>>> reported("U9G G13A")
0.536
>>> reported("G1C G29A")
0.174
>>> reported("U53G A61G")
0.313
>>> reported("C16A U52A")
0.982
>>> reported("C6U A41C")
1.16
>>> reported("G27U C50G")
0.175
>>> reported("G1U G68U")
0.051
>>> reported("G34C A43C")
0.144
>>> reported("U20C C38G")
0.154
>>> reported("A11G C37G")
0.34
>>> reported("G27U G54A")
0.26
>>> reported("C37G G51A")
0.647
>>> reported("C10A A28G")
1.09
>>> reported("G32C U63G")
0.035
>>> reported("U5A A23C")
0.436
>>> reported("C10U A30G")
0.135
